# Target Entity: hPAD4 enzyme (Homo sapiens (Human), UniProt Q9UM07)
# Sequence (Q9UM07 whole entry): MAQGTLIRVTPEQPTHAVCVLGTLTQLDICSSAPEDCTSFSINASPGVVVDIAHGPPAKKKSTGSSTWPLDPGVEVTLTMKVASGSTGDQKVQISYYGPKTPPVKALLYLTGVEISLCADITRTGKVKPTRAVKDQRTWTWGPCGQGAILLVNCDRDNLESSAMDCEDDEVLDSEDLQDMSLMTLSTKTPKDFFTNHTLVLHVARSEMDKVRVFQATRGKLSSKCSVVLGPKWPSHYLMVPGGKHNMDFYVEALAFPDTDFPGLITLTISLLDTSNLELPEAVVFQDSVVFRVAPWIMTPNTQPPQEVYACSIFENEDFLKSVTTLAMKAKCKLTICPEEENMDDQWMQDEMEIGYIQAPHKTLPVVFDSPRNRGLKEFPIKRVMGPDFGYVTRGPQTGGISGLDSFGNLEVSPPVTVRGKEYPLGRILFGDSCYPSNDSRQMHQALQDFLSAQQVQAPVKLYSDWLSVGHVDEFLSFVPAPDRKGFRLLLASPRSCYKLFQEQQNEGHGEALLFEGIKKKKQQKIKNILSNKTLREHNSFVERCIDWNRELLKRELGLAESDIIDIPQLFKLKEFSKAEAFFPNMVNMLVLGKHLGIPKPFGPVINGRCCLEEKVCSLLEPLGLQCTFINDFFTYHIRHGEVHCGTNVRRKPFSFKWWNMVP
# Method Description: RFMS2 assay (RapidFire mass spectrometry, TSTGGRQGSHH peptide substrate)
# Type: biochemical
# Condition Context: 35 nM recombinant human PAD4, 500 μM TSTGGRQGSHH peptide, 30 minutes at room temperature; read-out: RFMS 2 IC50
# Procedure: Stock compounds were dissolved and stored in 100% DMSO. Compound solutions were prepared via serial dilution at 3-fold intervals in DMSO with top compound concentration at 20 μM in each assay. 0.25 μl of compound solution was transferred from the compound plate to the assay plate by using an acoustic dispenser. […] MRM transitions for substrate and product were monitored in positive ESI mode at m/z=562.3/969.7 and m/z=562.8/541.3 respectively. […]
pIC50: −log10 of the molar value.
Parameter Measured: pIC50

These recorded examples may help you get a feel for the data.
> print(dat)
                                   molecule  parameter.measured      measured
1  COCC(C)c1ccc2cc(-c3nc4cc5c(cc4n3C)CCN(C[C@@H](C)N)C5=O)n(CC3CC3)c2c1 (single isomer, unassigned) [Example 41]               pIC50  6.30 to 7.00
2  Cn1c(-c2cc3ccc(C4CC4)nc3n2CC2CC2)nc2cc3c(cc21)CCN(C[C@H](N)CF)C3=O [Example 59]               pIC50  6.30 to 7.00
3  COc1cccc2cc(-c3nc4cc5c(cc4n3C)CCN(C[C@H](N)CF)C5=O)n(Cc3ncno3)c12 [Example 120]               pIC50  6.30 to 7.00
4  COc1cccc2cc(-c3nc4cc5c(cc4n3C)CCN(C[C@H](N)CF)C5=O)n(Cc3nc(C)co3)c12 [Example 124]               pIC50  6.30 to 7.00

Looking up Cn1c(-c2cc3cccc(OCCn4cnc(C#N)n4)c3n2CC2CC2)nc2cc3c(cc21)CCN(C[C@H](N)CF)C3=O [Example 224] , I found its pIC50 recorded as 6.30 to 7.00

Looking up COC(=O)N(C)CCOc1cccc2cc(-c3nc4cc5c(cc4n3C)CCN(C[C@H](N)CF)C5=O)n(CC3CC3)c12 [Example 201] , I found its pIC50 recorded as 6.30 to 7.00

Looking up C[C@@H](N)CN1CCc2cc3c(cc2C1=O)nc(-c1cc2ccccc2n1CC12CC(C1)C2)n3C [Example 73] , I found its pIC50 recorded as < 6.00

Looking up C[C@@H](N)CN1CCc2cc3c(cc2C1=O)nc(-c1cc2cccc(C#N)c2n1CC1CC1)n3C [Example 27] , I found its pIC50 recorded as 6.00 to 6.30

Looking up C[C@@H](N)CN1CCc2c(cc3nc(-c4cc5ccccc5n4CC4CC4)n(C)c3c2F)C1=O [Example 237] , I found its pIC50 recorded as 6.30 to 7.00

Looking up COC(=O)NC[C@@H](C)Oc1cccc2cc(-c3nc4cc5c(cc4n3C)CCN(C[C@H](N)CF)C5=O)n(CC3CC3)c12 [Example 200] , I found its pIC50 recorded as 6.30 to 7.00

====

# Target Entity: hPAD4 enzyme (Homo sapiens (Human), UniProt Q9UM07)
# Method Description: RFMS2 assay (RapidFire mass spectrometry, TSTGGRQGSHH peptide substrate)
# Format: biochemical
# Condition Context: 35 nM recombinant human PAD4, 500 μM TSTGGRQGSHH peptide, 30 minutes at room temperature; read-out: RFMS 2 IC50
pIC50: −log10 of the molar value.
// values below are reported pIC50

> print(dat)
                                   compound      measured
1  Cn1c(-c2cc3cccc(OCC4COC(=O)N4)c3n2CC2CC2)nc2cc3c(cc21)CCN(C[C@H](N)CF)C3=O (stereo partly drawn) [Example 172]  7.00 to 7.96
2  COc1cccc2cc(-c3nc4cc5c(cc4n3C)CCN(C[C@H](N)CF)C5=O)n(Cc3ccoc3)c12 [Example 138]  6.30 to 7.00
3  COc1cccc2cc(-c3nc4cc5c(cc4n3C)CCN(C[C@@H](C)N)C5=O)n(CCOC3CC3)c12 [Example 91]  6.30 to 7.00

Below: the item to evaluate.
Looking up COc1cccc2cc(-c3nc4cc5c(cc4n3C)CCN(C[C@H](N)CF)C5=O)n(C[C@H]3CCCO3)c12 [Example 132] , I found its pIC50 recorded as 6.30 to 7.00

====

// values below are reported IC50
# Target Entity: hPAD4 enzyme (Homo sapiens (Human), UniProt Q9UM07)
# Method Description: RFMS2 assay (RapidFire mass spectrometry, TSTGGRQGSHH peptide substrate)
# Type: biochemical
# Condition Context: 35 nM recombinant human PAD4, 500 μM TSTGGRQGSHH peptide, 30 minutes at room temperature; read-out: RFMS 2 IC50

> print(dat)
                                smiles.data  parameter.measured       measured
1  Cn1c(-c2cc3cccc(CCCn4ccnc4)c3n2CC2CC2)nc2cc3c(cc21)CCN(C[C@H](N)CF)C3=O                IC50  101 to 500 nM
2  COc1cccc2cc(-c3nc4cc5c(cc4n3C)CCN(C[C@H](N)CF)C5=O)n(Cc3ocnc3C)c12                IC50  101 to 500 nM
3  COc1cccc2cc(-c3nc4cc5c(cc4n3C)CCN(C[C@H](N)CF)C5=O)n(Cc3ccco3)c12                IC50  101 to 500 nM

Looking up COCCn1c(-c2nc3cc4c(cc3n2C)CCN(C[C@H](N)CF)C4=O)cc2ccccc21 , I found its IC50 recorded as 501 to 1000 nM

Looking up Cn1c(-c2cc3ccccc3n2CC2CC2)nc2cc3c(cc21)CCN(CC(C)(C)N)C3=O , I found its IC50 recorded as > 1000 nM

Looking up COc1nccc2cc(-c3nc4cc5c(cc4n3C)CCN(C[C@@H](C)N)C5=O)n(CC3CC3)c12 , I found its IC50 recorded as 501 to 1000 nM

Looking up COc1cccc2cc(-c3nc4cc5c(cc4n3C)CCN(C[C@H](N)CF)C5=O)n(Cc3cc(C)no3)c12 , I found its IC50 recorded as 101 to 500 nM

====

# Target Entity: hPAD4 enzyme (Homo sapiens (Human))
# Method Description: RFMS2 assay (RapidFire mass spectrometry, TSTGGRQGSHH peptide substrate)
# Assay type: biochemical
# Condition Context: 35 nM recombinant human PAD4, 500 μM TSTGGRQGSHH peptide, 30 minutes at room temperature; read-out: RFMS 2 IC50
Parameter Measured: IC50

> print(dat)
                                   molecule  parameter.measured       measured
1  Cn1c(-c2cc3ccccc3n2CC2CC2)nc2cc3c(cc21)CCN(CC1CNCCN1)C3=O (stereo not shown)                IC50      > 1000 nM
2  Cn1c(-c2cc3ccccc3n2CC2CCC2)nc2cc3c(cc21)CCN(C[C@H](N)CF)C3=O                IC50  101 to 500 nM

Looking up Cn1c(-c2cc3cccc(OCc4cnco4)c3n2CC2CC2)nc2cc3c(cc21)CCN(C[C@H](N)CF)C3=O , I found its IC50 recorded as 101 to 500 nM

Looking up Cn1c(-c2cc3cccc(OCCc4cocn4)c3n2CC2CC2)nc2cc3c(cc21)CCN(C[C@H](N)CF)C3=O , I found its IC50 recorded as 101 to 500 nM

Looking up Cn1nccc1Cn1c(-c2nc3cc4c(cc3n2C)CCN(C[C@H](N)CF)C4=O)cc2ccccc21 , I found its IC50 recorded as > 1000 nM

Looking up CCn1c(-c2nc3cc4c(cc3n2C)CCN(C[C@H](N)CF)C4=O)cc2ccccc21 , I found its IC50 recorded as > 1000 nM

Looking up COc1ccc2cc(-c3nc4cc5c(cc4n3C)CCN(C[C@@H](C)N)C5=O)n(CC3CC3)c2c1 , I found its IC50 recorded as 101 to 500 nM

====

# Target Entity: hPAD4 enzyme (Homo sapiens (Human))
# Method Description: RFMS2 assay (RapidFire mass spectrometry, TSTGGRQGSHH peptide substrate)
# Format: biochemical
# Condition Context: 35 nM recombinant human PAD4, 500 μM TSTGGRQGSHH peptide, 30 minutes at room temperature; read-out: RFMS 2 IC50
// values below are reported IC50

These recorded examples may help you get a feel for the data.
> print(dat)
                                   molecule      measured
1  Cn1c(-c2cc3cccc(OCCn4ccnn4)c3n2CC2CC2)nc2cc3c(cc21)CCN(C[C@H](N)CF)C3=O [Example 181]  11 to 100 nM
2  Cn1c(-c2cc3cccc(OCCc4ccno4)c3n2CC2CC2)nc2cc3c(cc21)CCN(C[C@H](N)CF)C3=O [Example 195]  11 to 100 nM

Below: the item to evaluate.
Looking up Cc1ccc2cc(-c3nc4cc5c(cc4n3C)CCN(C[C@@H](C)N)C5=O)n(CC3CCC3)c2c1 [Example 83] , I found its IC50 recorded as 101 to 500 nM

Value source: patent US20250346592A1
